tested on: Plasmodium falciparum; experiment: In vitro antimalarial activity against drug-resistant Plasmodium falciparum W-2; assay type: functional, organism-based
So I've got a bunch of compounds here, and I need their IC50 values.
Numbers only; they are read as ng/mL.

q: Give its IC50 value. Item: `CCO[C@H]1O[C@@H]2O[C@@]3(C)CC[C@H]4[C@H](C)CC[C@@H]([C@H]1C)[C@@]24OO3`
a: 0.18

q: // query IC50 value for entry `C[C@@H]1CC[C@H]2[C@@H](C)C(=O)O[C@@H]3O[C@@]4(C)CC[C@@H]1[C@]32OO4`
a: 0.32

q: Could you share which IC50 value was measured for `C=CC[C@H]1O[C@@H]2O[C@@]3(C)CC[C@H]4[C@H](C)CC[C@@H]([C@H]1C)[C@@]24OO3` ?
a: 0.59

q: Given `CC[C@H]1O[C@@H]2O[C@@]3(C)CC[C@H]4[C@H](C)CC[C@@H]([C@H]1C)[C@@]24OO3` , state its recorded IC50.
a: 0.29

q: Data request, read-out IC50, for C[C@@H]1CC[C@H]2[C@@H](C)CO[C@@H]3OC4(C)CC[C@@H]1[C@]32OO4 (single isomer, unassigned)
a: 0.48

q: What value of IC50 has been reported for the following compound? `CCC[C@H]1O[C@@H]2O[C@@]3(C)CC[C@H]4[C@H](C)CC[C@@H]([C@H]1C)[C@@]24OO3`
a: 0.16

q: Quick check: IC50 of C[C@H]1[C@@H](CCO)O[C@@H]2OC3(C)CC[C@H]4[C@H](C)CC[C@@H]1[C@@]24OO3 (single isomer, unassigned) ?
a: 0.59
